What growth was measured for each of the following?
# Tested on: SK-MEL-5 melanoma
# assay overview: NCI-60 one-dose screen, 48 h (100 = growth as untreated, 0 = no growth, -100 = all killed)
# condition parameters: 10 µM unless noted
Compounds without any hit were thinned out: in the full panel of roughly 83,000, 20% have a hit.
All answers are understood in %, so give the number only.

query: Record request: growth value, item `CSc1ccccc1NC(=O)c1ccc2nnn(/C(C#N)=C/c3ccccn3)c2c1`
result: -98.9

query: Lookup CC(=O)OC[C@@]1(C)C2CC[C@]3(C)C(CC=C4C5CC(C)(C)CC[C@]5(C(=O)Nc5ccc(F)cc5)CC[C@]43C)[C@@]2(C)C[C@@H](OC(C)=O)[C@@H]1OC(C)=O (stereo partly drawn)
result: 8.24

query: Lookup `Cc1ccc(S(=O)(=O)c2nc(S(=O)(=O)c3ccc(C)cc3)c(Cl)s2)cc1`
result: 76.4

query: Lookup CC1(C)CC[C@]2(C(=O)O)CC[C@]3(C)C(=CCC4[C@@]5(C)C[C@@H](O)[C@@H]6OC(c7ccccc7Br)OC[C@@]6(C)C5CC[C@]43C)C2C1 (stereo partly drawn)
result: 7

query: Lookup `N/C(=N\c1nc2ccccc2s1)NC(=O)Nc1c(Cl)cccc1Cl`
result: 22.4

query: Lookup `O=C(COc1ccc2c(c1)CCCC(=O)N2)NCc1ccccc1`
result: 82

query: Lookup `O=C1/C(=C/C2=Cc3ccccc3OC2)SC(=S)N1c1ccccc1F`
result: 105

query: Lookup `Cn1cc(-c2cc3nc(-c4c[nH]c5ccc(Br)cc45)cc(N)n3n2)c2ccccc21`
result: -77.8

###

# Tested on: HOP-62 NSCLC
# assay overview: NCI-60 one-dose screen, 48 h (100 = growth as untreated, 0 = no growth, -100 = all killed)
# condition parameters: 10 µM unless noted
This is part of a sample that, as a whole, favours compounds with a hit. Of some 83,000 tested, about 20% had one in any assay.
Rule: growth of 80% or more gives condition met; anything lower gives condition not met.

query: Record COc1cc2c(c(OC)c1OC)C(=O)CC(c1cccc(NC(=O)[C@@H](N)CC(C)C)c1)O2 (some centres not stated) ; criterion: growth no lower than 80%. Met?
result: condition met

query: Lookup COc1c(F)ccc(C(=O)Nc2ccc3nc(NC(=O)C4CCCN(S(=O)(=O)c5ccc(C#N)cc5)C4)sc3c2)c1F (configuration not stated)
result: condition met

query: Lookup `C/C(=N\N=C1/C(=O)Nc2ccc(Cl)cc21)c1ccc2c(c1)Nc1ccccc1S2`
result: condition not met

query: Lookup `CC(=O)Nc1cccc(Nc2nc(NCc3ccccc3)c3ccccc3n2)c1`
result: condition not met

query: Lookup COc1cc2c(c(OC)c1OC)C(=O)CC(c1cccc(NC(=O)c3cc(N)ccc3Cl)c1)O2 (configuration not stated)
result: condition not met

query: Lookup COc1ccc(C2CC(c3ccc(S(=O)(=O)NCCNc4nc(Nc5ccc(F)cc5)nc(N(C)C)n4)cc3)=Nc3c(N)nc(N)nc3N2)cc1 (configuration not stated)
result: condition met

query: Lookup `O=C1Nc2ccc([N+](=O)[O-])cc2C1=Nc1ccccc1`
result: condition met

query: Lookup `N/C(=N\N=C\c1ccc([N+](=O)[O-])cc1)c1c(N)nc(=S)[nH]c1-c1ccc(Cl)cc1Cl`
result: condition not met

query: Lookup `COc1ccc(-c2ccc(SCC(=O)Nc3ccc(S(N)(=O)=O)cc3Br)nn2)cc1`
result: condition not met

query: Lookup `CSc1ccccc1NC(=O)c1ccc2nnn(/C(C#N)=C/c3ccccn3)c2c1`
result: condition not met

query: Lookup `N#Cc1c(-c2cccnc2)cc(-c2ccc3ccccc3c2)[nH]c1=O`
result: condition met

query: Lookup `CCCCCCCCc1ccc(C(=O)Nc2cccc(P(=O)(O)O)c2)cc1`
result: condition met

query: Lookup `CSc1ccc(NC(=O)c2ccc3nnn(/C(C#N)=C/c4ccccn4)c3c2)cc1`
result: condition not met

query: Lookup `COc1ccc(/C=C2\C(=O)Nc3ccc(Cl)cc32)cc1OCc1ccccn1`
result: condition not met

query: Lookup `CN(C)c1nc(NCCNS(=O)(=O)c2ccc(C(=O)/C=C/c3ccc(F)cc3)cc2)nc(Nc2ccc(F)cc2)n1`
result: condition not met

query: Lookup `COc1ccc(Cc2nn(CC(=O)N/N=C/c3ccc(F)cc3)c(=O)c3c(C)noc23)cc1`
result: condition not met

query: Lookup `COc1ccc2[nH]c(O)c(N=NC(=O)Cn3c(-c4ccccc4)nc4cc(C)ccc43)c2c1`
result: condition not met

query: Lookup COc1cc2c(c(OC)c1OC)C(=O)CC(c1cccc(NC(=O)c3cccc([N+](=O)[O-])c3)c1)O2 (configuration not stated)
result: condition not met

query: Lookup COc1cc2c(c(OC)c1OC)C(=O)CC(c1cccc(NC(=O)c3cc(NC(=O)[C@@H](N)CO)ccc3C)c1)O2 (some centres not stated)
result: condition met

query: Lookup `O=C(/C=C/c1ccc(-c2ccccc2)cc1)c1nc2ccccc2n1Cc1ccc(F)cc1`
result: condition not met

query: Lookup `COc1ccc(C(=O)/C=C/c2ccc3ccccc3c2)cc1S(N)(=O)=O`
result: condition not met

query: Lookup `COc1ccc(-c2nc3cc(C)ccc3n2CC(=O)N=Nc2c(O)[nH]c3ccc(Br)cc23)cc1`
result: condition not met

query: Lookup `COc1cc(OC)c2c3nc4cc(C)c(C)cc4nc3n(CCN(C)C)c2c1`
result: condition not met

query: Lookup `CCN1C(=O)/C(=N\N=C(/C)c2ccc3c(c2)Nc2ccccc2S3)c2cc(Cl)ccc21`
result: condition met

query: Lookup `NS(=O)(=O)c1ccc(-n2cc(-c3cccc(NC(=O)c4ccc(Cl)c(C(F)(F)F)c4)c3)nn2)cc1`
result: condition not met

query: Lookup COc1c(F)ccc(C(=O)Nc2ccc3nc(NC(=O)C4CCCN(S(=O)(=O)C5CC5)C4)sc3c2)c1F (configuration not stated)
result: condition not met

query: Lookup CCOC(=O)C1=C(N)N(c2ccccc2)C2=C(C(=O)CC(C)(C)C2)C1c1ccccc1Cl (configuration not stated)
result: condition met

query: Lookup `COc1cc(-c2ccc(/C=N/NC(=O)c3[nH]c4ccc(Br)cc4c3-c3ccccc3)s2)cc(OC)c1OC`
result: condition not met

query: Lookup `O=C1Nc2cc(Cl)ccc2/C1=C/c1cccc(OCc2ccccn2)c1`
result: condition not met

query: Lookup `CNS(=O)(=O)c1ccc(Nc2ccc(C(F)(F)F)cc2)c(-c2cn(C)cn2)c1`
result: condition met

query: Lookup `COc1ccc(/C=N/NC(=O)Cn2nc(Cc3ccc(OC)cc3)c3onc(C)c3c2=O)cc1`
result: condition not met

query: Lookup `COc1ccc(C(=O)/C=C/c2ccccc2Cl)cc1S(N)(=O)=O`
result: condition met

query: Lookup CC1=C(C(=O)OCc2ccccc2)C(c2ccc(-n3cncn3)cc2)n2c(nc3ccccc32)N1 (configuration not stated)
result: condition not met

query: Lookup CN(C)c1nc(NCCNS(=O)(=O)c2ccc(C3=Nc4c(N)nc(N)nc4NC(c4ccc(C(F)(F)F)cc4)C3)cc2)nc(Nc2ccc(F)cc2)n1 (configuration not stated)
result: condition not met

query: Lookup `CC(=O)NNc1ccc2nnc(-c3ccccc3)n2n1`
result: condition met

query: Lookup C=C1CC[C@@H]2[C@]3(C)COC(c4cn[nH]c4-c4cccc(Cl)c4)O[C@@H]3CC[C@@]2(C)[C@@H]1C/C=C1/C(=O)OCC1O (some centres not stated)
result: condition not met

query: Lookup `Cc1cccc(Nc2nc3ccccc3nc2/C=C/c2ccc(F)cc2)c1`
result: condition met

###

What growth was measured for each of the following?
# Tested on: A549/ATCC NSCLC
# assay overview: NCI-60 one-dose screen, 48 h (100 = growth as untreated, 0 = no growth, -100 = all killed)
# condition parameters: 10 µM unless noted
This is part of a sample that, as a whole, favours compounds with a hit. Of some 83,000 tested, about 20% had one in any assay.
All answers are understood in %, so give the number only.

query: Record request: growth value, item `O=c1c2ccccc2nc(-c2ccccc2)n1/N=C/c1ccc2ccccc2c1`
result: 41.8

query: Lookup COc1c(F)ccc(C(=O)Nc2ccc3nc(NC(=O)C4CCCN(S(=O)(=O)c5cccc(Cl)c5)C4)sc3c2)c1F (stereo unspecified)
result: 68

query: Lookup C=C1CC[C@@H]2[C@]3(C)COC(c4cn[nH]c4-c4ccc(Br)cc4)O[C@@H]3CC[C@@]2(C)[C@@H]1C/C=C1/C(=O)OCC1O (stereo partly specified)
result: -30.5

query: Lookup `Cc1ccc(-c2nc(C#N)c(S(=O)(=O)N3CCN(S(=O)(=O)c4ccccc4)CC3)o2)cc1`
result: 57.9

query: Lookup O=C(c1ccc(OCCN2CCOCC2)cc1)C1[C@H](c2ccc(Cl)cc2)[C@@H](c2ccccc2)NC12C(=O)Nc1ccc(Cl)cc12 (stereo partly specified)
result: 22.9

query: Lookup `CN1CCN(/C(=N\c2sc(-c3ccccc3)nc2-c2ccccc2)c2ccccc2)CC1`
result: 76.9

query: Lookup `COc1ccc2[nH]cc(-c3nnc(N)nc3-c3cn(C)c4ncc(Br)cc34)c2c1`
result: 84.3

query: Lookup `CSc1ccccc1NC(=O)c1ccc2nnn(/C(C#N)=C/c3ccccn3)c2c1`
result: -27.2

query: Lookup `CCCCNC(=S)Nc1ccc(OCc2nc3ccccc3[nH]2)cc1`
result: 49.7

query: Lookup `c1ccc(-c2csc(Nc3cccc(Nc4nc(-c5ccccc5)cs4)c3)n2)cc1`
result: 44.2

query: Lookup `CCOC(=O)c1ccc(Nc2nc(NN)nc(-c3ccc(OC)cc3)c2C#N)cc1`
result: 105

query: Lookup `C#C[C@]1(O)CC[C@H]2[C@@H]3CC=C4c5sc(-c6ccc([N+](=O)[O-])cc6)nc5CC[C@]4(C)[C@H]3CC[C@@]21C`
result: 29.6

query: Lookup `CN(C)CCn1c2ccccc2c2nc3cc4ccccc4cc3nc21`
result: -68

query: Lookup `COc1ccc(C(=O)/C=C/c2ccccc2Cl)cc1S(N)(=O)=O`
result: 112

query: Lookup `CN1CCN(c2ccc3c(c2)nc(NNC(=O)c2ncccn2)c2cccn23)CC1`
result: 12.5

query: Lookup COc1cc(C2CC(c3ccc(S(=O)(=O)NCCNc4nc(Nc5ccc(F)cc5)nc(N(C)C)n4)cc3)=Nc3c(N)nc(N)nc3N2)cc(OC)c1OC (stereo unspecified)
result: 97.9

query: Lookup COCOc1cc2oc(C(=O)N[C@@H](Cc3ccccc3)C(O)C(=O)NCc3ccccc3)c(C)c(=O)c2cc1OCOC (stereo partly specified)
result: 58.9

query: Lookup `COc1cc(/C=C/C(=O)c2ccccc2)ccc1Oc1nc(Nc2ccc(F)cc2)nc(N(C)C)n1`
result: 52.8

query: Lookup COc1cc2c(c(OC)c1OC)C(=O)CC(c1cccc(NC(=O)c3cc(NC(=O)[C@@H](N)CO)ccc3C)c1)O2 (stereo partly specified)
result: 102

query: Lookup `Cc1cc2c(cc1Cl)C(=O)/C(=C/c1ccc(F)cc1)O2`
result: 103

query: Lookup C#CCOc1cc(N(CC)CC)ccc1C(C(=O)NC(C)(C)C)N(C(=O)C1CCc2cc(F)ccc2O1)c1ccccc1F (stereo unspecified)
result: 35.2

query: Lookup CN(C)CCOc1ccc(C(=O)C2[C@H](c3ccc(Cl)cc3)[C@@H](c3ccccc3)NC23C(=O)Nc2ccc(Br)cc23)cc1 (stereo partly specified)
result: 4.59

query: Lookup `Cn1cc(-c2nc(N)nnc2-c2c[nH]c3ccc(Br)cc23)c2cc(Br)cnc21`
result: 12.5

query: Lookup `C#CCOc1ccc(/C=N/Nc2nc(-c3cc4cc(OC)ccc4oc3=O)cs2)cc1OC`
result: 10

query: Lookup `O=c1[nH]c2ccccc2cc1CSc1nccc(-c2ccc3ccccc3c2)n1`
result: 56.8

query: Lookup `COc1ccc(C(=O)Nc2n[nH]c(Nc3ccccc3)c2C#N)cc1`
result: 117

query: Lookup `NS(=O)(=O)c1ccc(N=Nc2c(O)n(CC(=O)Nc3ccccc3)c3ccccc23)cc1`
result: 0.913

query: Lookup COc1ccc(C2=NN(c3ccccc3)C(c3ccc(OC)c(OCc4ccccc4)c3)C2)cc1OC (stereo unspecified)
result: 101

query: Lookup `COc1ccc(-c2ccnc(SCc3cc4cc(Cl)ccc4[nH]c3=O)n2)cc1`
result: 60.7

query: Lookup `CC(C)c1sc(NC(=O)c2cc(NC(=O)c3cc(NC(=O)c4cscn4)cn3C)cn2C)nc1C(=O)NCCCN(C)C`
result: 105

query: Lookup COC(OC)C1=C(C)OC(N)=C(C#N)C12C(=O)Nc1ccccc12 (stereo unspecified)
result: 114
